Catalogue of TGI readings, one per entry.
# System: NCI-H460 lung
# protocol: NCI tumour cell line growth inhibition, 48 h

Example entries and their recorded answers appear below.
Query block: Please provide the recorded TGI for CSc1ncc2c(C#N)c3sc4ccccc4n3c(=O)c2n1 , tested on NCI-H460 lung.
Result block: > 100 µM

Query block: Please provide the recorded TGI for CS(=O)(=O)N1CC(CCl)c2ccc([N+](=O)[O-])cc21 (centres undefined) , tested on NCI-H460 lung.
Result block: > 100 µM

***
Query block: Please provide the recorded TGI for C[n+]1c2ccccc2c(C(=O)Nc2ccc(S(=O)(=O)Nc3ccnn3-c3ccccc3)cc2)c2ccccc21 , tested on NCI-H460 lung.
Result block: > 100 µM

Query block: Please provide the recorded TGI for Nc1ccccc1C#C/C=C\C#Cc1cccs1 , tested on NCI-H460 lung.
Result block: 42.5 µM

---

# Tested on: HCT-116 colon
# protocol: NCI tumour cell line growth inhibition, 48 h
readout-kind: TGI

Example entries and their recorded answers appear below.
Query block: Given the compound CCNCCNc1c2ccccc2nc2ccccc12 , what is its reported TGI?
Result block: 7.99 µM

Query block: Given the compound Cc1nc(N)nc(N)c1-c1ccc(Cl)c(Cl)c1 , what is its reported TGI?
Result block: > 100 µM

Query block: Given the compound Cc1ccc(NC(=O)C(=O)C(C#N)c2ccccc2C)cc1C (stereo unspecified) , what is its reported TGI?
Result block: > 63 µM

Query block: Given the compound O=S(=O)(O)c1ccc2cccc(N=Nc3c(O)ccc4ccccc34)c2c1 , what is its reported TGI?
Result block: > 100 µM

Query block: Given the compound CCCC(C)c1cc(Cc2cc(Cl)cc(Cl)c2O)c(O)c(Cc2cc(Cl)cc(Cl)c2O)c1 (stereo unspecified) , what is its reported TGI?
Result block: 3.97 µM

***
Query block: Given the compound CCCNC1=C(C(=O)OCC)C(=O)CO1 , what is its reported TGI?
Result block: > 100 µM

---

# System: HCT-116 colon
# protocol: NCI tumour cell line growth inhibition, 48 h
readout-kind: TGI (µM)
Numbers only; they are read as µM.

Query block: Given the molecule CC(C)c1cc(-c2n[nH]c(=O)n2-c2ccc3c(ccn3C)c2)c(O)cc1O , what is its reported TGI?
Result block: 13.5

Note: attention shifts to another entry.
Query block: Given the molecule C=CCC[CH2][Sn]([c]1ccccc1)([c]1ccccc1)[c]1ccccc1 , what is its reported TGI?
Result block: 2.15

---

# Tested on: TK-10 renal
# protocol: NCI tumour cell line growth inhibition, 48 h
readout-kind: TGI (µM)
Numbers only; they are read as µM.

Example entries and their recorded answers appear below.
Query block: Given the molecule CC(=O)N1C(=O)/C(=C\C(=O)c2ccc([N+](=O)[O-])cc2)c2ccccc21 , what is its reported TGI?
Result block: 26.3

Query block: Given the molecule COc1ccc(-c2csc(N(C(=O)N3CCN(c4cc5c(cc4F)c(=O)c(C(=O)O)cn5C4CC4)CC3)c3ccccc3)n2)cc1 , what is its reported TGI?
Result block: 39.9

Query block: Given the molecule Cc1c(C(=O)C/C(=N\O)C(=O)Nc2cc(Cl)c(Cl)cc2Cl)[n+](=O)c2ccccc2n1[O-] , what is its reported TGI?
Result block: 72.2

Note: attention shifts to another entry.
Query block: Given the molecule CN(C)CC(=O)Nc1ccc(Cn2nnc3c2C(=O)c2nnn(Cc4ccc(NC(=O)CN(C)C)cc4)c2C3=O)cc1 , what is its reported TGI?
Result block: 7.58

---

Catalogue of TGI readings, one per entry.
# Test system: ACHN renal
# protocol: NCI tumour cell line growth inhibition, 48 h

Query block: Given the compound Cn1cnc(CCc2ccccc2)n1 , what is its reported TGI?
Result block: > 100 µM

Query block: Given the compound CCNCCNc1c2ccccc2nc2ccccc12 , what is its reported TGI?
Result block: 1.37 µM

Query block: Given the compound Cc1[nH]ccc2c1[nH]c1cc(=O)ccc12 , what is its reported TGI?
Result block: > 100 µM

Query block: Given the compound CCOC(=O)COc1ccccc1/C=C1\CCC(CN(C)C)C1=O (stereo not given) , what is its reported TGI?
Result block: 26.9 µM

Query block: Given the compound CC(=O)OCOC(=O)CN(CC(=O)OCOC(C)=O)Cc1cc2c(cc1OC(C)=O)Oc1cc(OC(C)=O)c(CN(CC(=O)OCOC(C)=O)CC(=O)OCOC(C)=O)cc1C21OC(=O)c2ccccc21 , what is its reported TGI?
Result block: 4.02 µM

Query block: Given the compound COc1cccc(-c2c(C#N)c(N)nc3c2CCS(=O)(=O)c2ccc(C)cc2-3)c1 , what is its reported TGI?
Result block: > 100 µM

Query block: Given the compound Cn1c(=O)c2c(nc(-n3nc(-c4ccc(Cl)cc4)cc3N)n2C)n(C)c1=O , what is its reported TGI?
Result block: > 100 µM

Query block: Given the compound COc1ccc(OC)c(NC(=O)C2=C(C)NC(C)=C(C(=O)Nc3cc(OC)ccc3OC)C2c2ccccc2)c1 , what is its reported TGI?
Result block: > 100 µM

***
Query block: Given the compound O=C(NCCCCCCNC(=O)n1cc(F)c(=O)[nH]c1=O)NCCCOCCOCCOCCOCCOCCOCCOCCOCCOCCOCCOCCOCCOCCOCCOCCOCCOCCOCCOCCOCCOCCCNC(=O)C(O)C(O)C(O)C(O)CO (stereo not given) , what is its reported TGI?
Result block: > 100 µM

Query block: Given the compound Nc1ncnc2ccc(Sc3ccc4ncnc(N)c4c3)cc12 , what is its reported TGI?
Result block: > 100 µM

---

# Tested on: NCI-H460 lung
Log the outcome using a class from TRUE (active), FALSE (inactive)

Reference set (5 entries):
Query block: Per the records of this test, what outcome belongs to COc1ccc(/C(C#N)=C/c2ccccc2OC)cc1 ?
Result block: FALSE

Query block: Per the records of this test, what outcome belongs to C=CCC[CH2][Sn]([c]1ccccc1)([c]1ccccc1)[c]1ccccc1 ?
Result block: FALSE

Query block: Per the records of this test, what outcome belongs to NCCOCCOCCNc1nc(Cc2ccccc2)nc(NCCCN2CCCC2=O)n1 ?
Result block: FALSE

Query block: Per the records of this test, what outcome belongs to COc1ccc(OC)c(/C=C2\SC(=S)NC2=O)c1 ?
Result block: FALSE

Query block: Per the records of this test, what outcome belongs to COc1cc(C2CC(c3ccc4c(c3)OCO4)=NN2C=O)cc(OC)c1OC (stereo not drawn) ?
Result block: FALSE

***
Query block: Per the records of this test, what outcome belongs to CCCCCCCCN=C(N)c1ccc(N2CCN(c3ccc(C(N)=NCCCCCCCC)cc3)CC2)cc1 ?
Result block: FALSE

Query block: Per the records of this test, what outcome belongs to Cc1cc(N(CCCl)CCCl)ccc1C=Nc1ccc(-c2csc(Cc3ccccc3)n2)cc1 ?
Result block: FALSE

---

# Tested on: NCI/ADR-RES ovarian
# protocol: NCI tumour cell line growth inhibition, 48 h
I would appreciate it if you labelled entries class 1 when TGI is 30 µM or higher, otherwise class 0.

Reference set (9 entries):
Query block: Would you say N=c1oc2c(Cl)cc(Cl)cc2cc1C(=O)Nc1cccc2ccccc12 shows TGI at minimum 30 µM?
Result block: class 0

Query block: Would you say COc1ccc(-c2nc3sc4c(c3c(=O)[nH]2)CCCCCC4)cc1 shows TGI at minimum 30 µM?
Result block: class 1

Query block: Would you say CCN(CC)CCC(=O)c1ccc(Oc2ccc(Cl)cc2)cc1 shows TGI at minimum 30 µM?
Result block: class 1

Query block: Would you say N=c1c2c(C(N)=O)cn(C3OC(CO)C(O)C3O)c2ncn1O (stereo unspecified) shows TGI at minimum 30 µM?
Result block: class 0

Query block: Would you say Oc1cccc2ccc(N/N=C/c3cc(CN4CCCCC4)c(O)c4ncccc34)nc12 shows TGI at minimum 30 µM?
Result block: class 0

Query block: Would you say CCNCCNc1c2ccccc2nc2ccccc12 shows TGI at minimum 30 µM?
Result block: class 0

Query block: Would you say CCN(CC)CC(C)Nc1ccc([N+](=O)[O-])c2sc3ccccc3c(=O)c12 (stereo unspecified) shows TGI at minimum 30 µM?
Result block: class 1

Query block: Would you say N#Cc1cccc(CSc2ncnc3nc[nH]c23)c1 shows TGI at minimum 30 µM?
Result block: class 1

Query block: Would you say COC(=O)C(CC12CC3CC(CC(C3)C1)C2)NC(=O)C(N)CC(=O)O (stereo unspecified) shows TGI at minimum 30 µM?
Result block: class 1

Now, please, on to the next compound.
Query block: Would you say CC(NNC(=O)c1ccncc1)c1ccc(F)cc1 (stereo unspecified) shows TGI at minimum 30 µM?
Result block: class 1

---

# Tested on: KM12 colon
# protocol: NCI tumour cell line growth inhibition, 48 h
readout-kind: TGI

Example entries and their recorded answers appear below.
Query block: Given the compound c1ccc([P+](Cc2ccc(C[P+](c3ccccc3)(c3ccccc3)c3ccccc3)cc2)(c2ccccc2)c2ccccc2)cc1 , what is its reported TGI?
Result block: > 100 µM

Query block: Given the compound Cn1cccc1-c1cc(-c2cccs2)nc(N)c1C#N , what is its reported TGI?
Result block: > 100 µM

Query block: Given the compound CCOC(=O)N/N=C(/OCC)c1ccccc1 , what is its reported TGI?
Result block: > 100 µM

Query block: Given the compound Cc1ccc(C2=Nc3cccc4cccc(c34)N2)cc1 , what is its reported TGI?
Result block: > 100 µM

Query block: Given the compound CC1OC(O[C@@H]2OC=C(C=O)[C@@]3(O)CC[C@H](C)[C@@H]23)C(O)C(O)C1O (stereo not given in full) , what is its reported TGI?
Result block: > 100 µM

***
Query block: Given the compound COc1ccc(/C=C(/C#N)C(N)=O)cc1OC , what is its reported TGI?
Result block: > 100 µM

Query block: Given the compound N#CC12C(=O)N3C(=NC(c4ccccc4)NC3c3ccccc3)C1(C#N)C(c1ccccc1)NC1=C2CCC1 (stereo not given) , what is its reported TGI?
Result block: > 100 µM

Query block: Given the compound C[C@]12CC[C@@H]3c4ccc(OP(=O)(O)O)cc4CC[C@H]3[C@@H]1CCC2=O , what is its reported TGI?
Result block: > 100 µM
